# assay.remarks: Pharmacokinetics after intravenous and subcutaneous administration in cynomolgus monkeys
# Assay type: in vivo
# assay.setup: cynomolgus monkey, plasma; Intravenous Solution, 1.76 mg/kg, n = 4
result.type: MRT (h)
Answer in h, number only, no unit symbol.

Query :: Which measured MRT value corresponds to `N=C(N)c1ccc2nc(-c3cc(CC(=O)N[C@@H](CC(=O)O)C(=O)O)cc(-c4cc(S(N)(=O)=O)ccc4O)c3O)[nH]c2c1` ?
Result :: 5.15

###

# assay.remarks: Animal PK studies, subcutaneous, baboon
# Type: in vivo
# assay.setup: plasma, sc, subcutaneous injection, baboons, read-out: time to reach maximum plasma concentrations (Tmax)
result.type: Tmax
Note: state the figure and append the unit.

Query :: Query (compound): `N=C(N)c1ccc2nc(-c3cc(CC(=O)N[C@@H](CC(=O)O)C(=O)O)cc(-c4cc(S(N)(=O)=O)ccc4O)c3O)[nH]c2c1` ; field requested: Tmax
Result :: 2.75 h

src = patent US8748468B2
